The reported numbers originate from patent US8344139B2.

test: Hygroscopicity / water adsorption (thermogravimetry, TG-FTIR); type: physicochemical; details: dihydrochloride
OBSERVED PROPERTY: hygroscopicity

>>> df
                                   compound       result
0  C[C@H](O)[C@H](O)[C@H]1CNc2nc(N)[nH]c(=O)c2N1.Cl.Cl [form G]  hygroscopic
1  C[C@H](O)[C@H](O)[C@H]1CNc2nc(N)[nH]c(=O)c2N1.Cl.Cl [form H]  hygroscopic

====

experiment: Hygroscopicity / water adsorption (thermogravimetry, TG-FTIR); format: physicochemical; conditions: dihydrochloride
OBSERVED PROPERTY: hygroscopicity

>>> print(df.to_string())
                                   compound                result
0  C[C@H](O)[C@H](O)[C@H]1CNc2nc(N)[nH]c(=O)c2N1.Cl.Cl [form D]  slightly hygroscopic
1  C[C@H](O)[C@H](O)[C@H]1CNc2nc(N)[nH]c(=O)c2N1.Cl.Cl [form C]  slightly hygroscopic
2  C[C@H](O)[C@H](O)[C@H]1CNc2nc(N)[nH]c(=O)c2N1.Cl.Cl [form M]  slightly hygroscopic
